Exercise: state measured inhibition at 10 µM for each of the compounds provided.
- Test system: OVCAR-5
- procedure-summary: NCI 60 one dose (10 μM) anticancer assay
- Format: cell-based
- measurement-conditions: Homo sapiens, 10 µM one dose, Ovarian Cancer, read-out: Growth Inhibition % OVCAR-5

q: Suppose we examine the compound Cc1ccc(-c2nc3ccccc3n2CC(=O)N/N=C/c2cccc(OCc3ccccc3)c2)o1 [Compound 17b] ; what inhibition at 10 µM value has been reported?
a: 14%

q: Item under review: COc1cc(/C=N/NC(=O)Cn2c(-c3ccc(C)o3)nc3ccccc32)ccc1OCc1ccccc1 [Compound 17f] . Reported inhibition at 10 µM?
a: < 10%

q: I'd like to know its inhibition at 10 µM. The compound in question is CC(C)c1nc2ccccc2n1CC(=O)N/N=C/c1cccc(OCc2ccccc2)c1 [Compound 17a]
a: < 10%
